System: IL-13
ASSAY_OVERVIEW: Cytokine assay: IL-13 release from PHA-L stimulated human PBMCs
Format: cell-based
RUN_PARAMETERS: Homo sapiens, PBMC, read-out: IL13 IC50
ATTRIBUTE_MEASURED: IC50 (nM)

Before answering, review these 10 worked examples.
CCOc1ccc(-c2cncc(C3COB(O)C3)c2)cc1OC (stereo not drawn) [Example 187] : 1420
CCCOc1cc(-c2nc(COC)cc(C3COB(O)C3)n2)ccc1OC (single isomer, unassigned) [Example 103] : 487
CCCOc1c(OC)ccc(-c2cncc(C3COB(O)C3)c2)c1OC (single isomer, unassigned; enantiomer 1) [Example 168] : 1260
CCCOc1cc(-c2cc(CO)nc(C3COB(O)C3)n2)ccc1OC (stereo not drawn) : 1580
COc1cc(-c2ccc(OC)c(OC)c2)cc(C2COB(O)C2)c1 (stereo not drawn) : 906
CCOc1cc(C2COB(O)C2)nc(-c2ccc(OC)c(OCC)c2)n1 (stereo not drawn) [Example 222] : 2370
CCCOc1cc(-c2cncc(C3COB(O)C3)n2)ccc1OC (stereo not drawn) : 509
COc1ccc(-c2cncc(C3COB(O)C3)n2)cc1OC1CCCC1 (single isomer, unassigned) [Example 126] : 680
CCOc1cc(-c2cccc(C3COB(O)C3)n2)ccc1SC (single isomer, unassigned; enantiomer 1) [Example 204] : 1710
CCOc1c(OC)ccc(-c2cncc(C3COB(O)C3)c2)c1F (stereo not drawn) [Example 73] : 384

a: CCOc1cc(-c2nc(C3COB(O)C3)cs2)c(F)cc1OC (stereo not drawn) [Example 91]
b: COc1ccc(-c2cccc(C3=CB(O)OC3)c2)cc1OC1CCCC1
Q: Which shows the larger IC50 value: a or b ? Respond using the label that marks the chosen record.
Result: b
(b: 3340 nM, a: 460 nM)

---

TARGET_OR_TEST_SYSTEM: PDE4B (aa 152-484, Uniprot ID Q07343) (Homo sapiens (Human), UniProt Q07343)
Sequence (Q07343 324-656): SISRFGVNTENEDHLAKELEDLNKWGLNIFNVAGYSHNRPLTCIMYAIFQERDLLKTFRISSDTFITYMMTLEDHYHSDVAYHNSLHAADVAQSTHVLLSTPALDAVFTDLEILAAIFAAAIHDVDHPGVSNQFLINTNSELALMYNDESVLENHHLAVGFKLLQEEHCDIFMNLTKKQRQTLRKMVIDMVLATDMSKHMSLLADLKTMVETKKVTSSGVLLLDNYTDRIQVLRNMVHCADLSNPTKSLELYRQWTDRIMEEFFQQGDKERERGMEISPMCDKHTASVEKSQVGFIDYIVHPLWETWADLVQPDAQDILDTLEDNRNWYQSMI
ASSAY_OVERVIEW: PDE4 SPA assay (scintillation proximity assay)
Format: biochemical
RUN_PARAMETERS: read-out: PDE4B2 IC50
ATTRIBUTE_MEASURED: IC50 (nM)

Before answering, review these 3 worked examples.
COc1ccc(-c2cncc(C3COB(O)C3)c2)cc1OC1CCSC1 (stereo not drawn) [Example 78] : 0.55
COc1ccc(-c2cncc(C3COB(O)C3)c2)cc1OC1CCCC1 (stereo not drawn) : 0.49
COc1ccc(-c2cncc(C3COB(O)C3)c2)cc1OC1CC1 (single isomer, unassigned) : 0.97

P: CCCOc1cc(-c2nc(OC)cc(C3COB(O)C3)n2)ccc1OC (single isomer, unassigned; enantiomer 2)
Q: CCOc1nc(-c2cccc(C3COB(O)C3)c2)ccc1OC (stereo not drawn)
R: COc1ccc(-c2cncc(C3COB(O)C3)c2)cc1OC(C)C (single isomer, unassigned; enantiomer 2) [Example 190]
Q: Rank items: key IC50, increasing. Respond with the label ranking, as requested.
Result: Q, R, P

---

Test system: IL-13
ASSAY_OVERVIEW: Cytokine assay: IL-13 release from PHA-L stimulated human PBMCs
Type: cell-based
RUN_PARAMETERS: Homo sapiens, PBMC, read-out: IL13 IC50
pIC50: −log10 of the molar value.
ATTRIBUTE_MEASURED: pIC50

COc1ccc(-c2cncc(C3COB(O)C3)c2)c(C#N)c1OC (stereo not shown) : 6.07
CCCOc1nc(-c2cccc(C3COB(O)C3)c2)ccc1OC (stereo not shown) : 6.05
CCCOc1cccc(-c2cncc(C3COB(O)C3)c2)c1 (stereo not shown) [Example 145] : 5.65
COc1cnc(-c2cccc(C3COB(O)C3)c2)nc1OC (stereo not shown) [Example 122] : 6.25
CCOc1cc(-c2nc(OC)cc(C3COB(O)C3)n2)ccc1OC (single isomer, unassigned; enantiomer 2) [Example 186] : 5.85

1: CCOc1cc(-c2cncc(C3COB(O)C3)c2)cc(C#N)c1OC (stereo not shown) [Example 118]
2: CCCOc1cc(-c2nc(OCCO)cc(C3COB(O)C3)n2)ccc1OC (single isomer, unassigned; enantiomer 1) [Example 196]
Q: // returns 1 or 2 , whichever has the lower pIC50 Respond using the label that marks the chosen record.
Result: 2
(2: 5.81, 1: 6.27)

---

Tested on: IL-13
ASSAY_OVERVIEW: Cytokine assay: IL-13 release from PHA-L stimulated human PBMCs
Type: cell-based
RUN_PARAMETERS: Homo sapiens, PBMC, read-out: IL13 IC50
ATTRIBUTE_MEASURED: IC50 (nM)

1: CCCOc1cc(-c2cncc(C3COB(O)C3)c2C)ccc1OC (stereo not shown) [Example 84]
2: CCCOc1cc(-c2cncc(C3COB(O)C3)c2)ccc1OC (stereo not shown)
3: COc1cc(-c2cccc(C3COB(O)C3)c2)ccc1SC (stereo not shown)
Q: Put the listed items above in order, lowest IC50 first. Respond with the label ranking, as requested.
Result: 2, 1, 3

---

Tested on: IFNγ
ASSAY_OVERVIEW: Cytokine assay: IFNγ release from PHA-L stimulated human PBMCs
Format: cell-based
RUN_PARAMETERS: Homo sapiens, PBMC
ATTRIBUTE_MEASURED: IC50 (nM)

CCCOc1cc(-c2cc(C3COB(O)C3)cc(CO)n2)ccc1OC (stereo not drawn) [Example 202] : 8.51
CCOc1cc(-c2cncc(C3COB(O)C3)c2)ccc1OC (stereo not drawn) : 1.44
CCCOc1cc(-c2cncc(C3COB(O)C3)c2C)ccc1OC (single isomer, unassigned) [Example 85] : 0.56
CCCOc1cc(-c2nc(OCCO)cc(C3COB(O)C3)n2)ccc1OC (stereo not drawn) [Example 195] : 0.33
CCCOc1c(OC)ccc(-c2cccc(C3COB(O)C3)c2)c1C#N (stereo not drawn) : 1.55
COc1cc(C2COB(O)C2)nc(-c2ccc(OC)c(OC3CCCC3)c2)n1 (stereo not drawn) : 2.42
CCCOc1nc(-c2cccc(C3COB(O)C3)c2)ccc1OC (stereo not drawn) : 1.56

A: COc1ccc(-c2cccc(C3COB(O)C3)c2)cc1OC(C)C (stereo not drawn)
B: CCOc1cc(-c2cncc([C@@H]3COB(O)C3)c2)ccc1OC
Q: Which shows the larger IC50 value: A or B ? Respond using the label that marks the chosen record.
Result: A
(A: 5.98 nM, B: 0.7 nM)

---

Parameter pIC50, tested on PDE4B (aa 152-484, Uniprot ID Q07343) (Homo sapiens (Human), UniProt Q07343), listed per item.
pIC50: −log10 of the molar value.
ATTRIBUTE_MEASURED: pIC50

CCCOc1cc(-c2nc(C)cc(C3COB(O)C3)n2)ccc1OC (centres unmarked) : 8.11
CCOc1cc(-c2cncc(C3COB(O)C3)n2)ccc1OC (centres unmarked) [Example 56] : 8.55
CCCOc1cc(-c2cncc([C@H]3COB(O)C3)c2)ccc1OC : 9.03

P: COc1ccc(-c2cncc(C3COB(O)C3)c2)cc1OC1CCSC1 (centres unmarked) [Example 80]
Q: CCOc1cc(-c2cccc(C3COB(O)C3)n2)ccc1SC (centres unmarked)
Q: // returns P or Q , whichever has the lower pIC50 Respond using the label that marks the chosen record.
Result: Q

---

System: IFNγ
ASSAY_OVERVIEW: Cytokine assay: IFNγ release from PHA-L stimulated human PBMCs
Assay type: cell-based
RUN_PARAMETERS: Homo sapiens, PBMC
ATTRIBUTE_MEASURED: IC50 (nM)

Before answering, review these 2 worked examples.
CCCOc1cc(-c2cc(C3COB(O)C3)cnc2C)cnc1OC (stereo not shown) [Example 218] : 2.3
CCOc1c(OC)ccc(-c2cccc(C3COB(O)C3)c2)c1C#N (single isomer, unassigned; enantiomer 2) [Example 192] : 5.43

1: CCCOc1cc(-c2nccc(C3COB(O)C3)n2)ccc1OC (stereo not shown)
2: CCCOc1cc(-c2cncc(C3COB(O)C3)c2)ncc1OC (single isomer, unassigned; enantiomer 1) [Example 179]
Q: Which shows the larger IC50 value: 1 or 2 ? Respond using the label that marks the chosen record.
Result: 1
(1: 3.29 nM, 2: 0.74 nM)

---

Tested on: IFNγ
ASSAY_OVERVIEW: Cytokine assay: IFNγ release from PHA-L stimulated human PBMCs
Type: cell-based
RUN_PARAMETERS: Homo sapiens, PBMC
ATTRIBUTE_MEASURED: IC50 (nM)

Before answering, review these 5 worked examples.
CCOc1cc(-c2cncc(C3COB(O)C3)c2C(F)F)ccc1OC (stereo not drawn) : 0.9
CCCOc1nc(-c2cncc(C3COB(O)C3)c2)ccc1OC (stereo not drawn) [Example 60] : 0.53
CCCOc1cc(-c2cncc(C3COB(O)C3)c2)ncc1OC (stereo not drawn) [Example 178] : 0.91
CCCOc1cc(-c2cncc(C3COB(O)C3)c2)c(F)cc1OC (single isomer, unassigned) [Example 111] : 2.95
CCOc1cc(-c2cncc(C3COB(O)C3)n2)ccc1OC (single isomer, unassigned) [Example 24] : 1.33

a: COc1ccc(-c2cccc(C3COB(O)C3)n2)cc1OC (stereo not drawn)
b: CCOc1cc(-c2cncc(C3COB(O)C3)c2)c(F)cc1OC (single isomer, unassigned) [Example 14]
c: COc1cc(-c2cccc(C3COB(O)C3)c2)cnc1OC (stereo not drawn)
d: COc1cc(-c2ccc(OC)c(OC)c2)cc(C2COB(O)C2)c1 (stereo not drawn)
Q: Rank items: key IC50, increasing. Respond with the label ranking, as requested.
Result: b, d, a, c

These entries and their values trace back to patent US11559538B2.
